Target: hPPARdelta (Homo sapiens)
Construct: Gal4-hPPARδ(LBD); Gal4 (fusion partner); expressed in transfected cells; host or cells: COS-7 (monkey kidney)
Sequence (Q03181 211-439 limits assumed): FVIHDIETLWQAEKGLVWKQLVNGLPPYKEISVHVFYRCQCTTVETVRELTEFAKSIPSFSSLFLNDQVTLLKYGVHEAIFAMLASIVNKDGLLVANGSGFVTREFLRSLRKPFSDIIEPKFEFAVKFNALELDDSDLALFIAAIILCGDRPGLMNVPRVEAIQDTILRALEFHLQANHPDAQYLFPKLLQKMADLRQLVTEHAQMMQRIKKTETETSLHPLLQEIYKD
Assay: Gal4-hPPARdelta transactivation assay in COS-7 cells (luciferase)
Type: cell-based
Details: COS-7, maximal relative activation vs reference; read-out: Gal4-hPPARδ(LBD) TOP (% ref)
Method: Monkey kidney COS-7 cells were maintained in standard culture conditions (Dulbecco's modified Eagle's minimal medium: DMEM) supplemented with 10% fetal calf serum, 1% sodium pyruvate, 1% essential amino acids and 1% antibiotics at 37° C. in a humidified atmosphere of 5% C02 and 95% air. The medium was changed every 2 days. All tested compounds were dissolved in DMSO. […] The luciferase activity was measured with the Steady-Glo Luciferase Assay System (Promega, Madison, Wis.). […]
Recorded measurements of Emax, one per entry
PROPERTY_LABEL: Emax (%)

[
  {
    "COMPOUND": "COC(c1ccc(Br)cc1)C1CC1c1cc(C)c(OC(C)(C)C(=O)O)c(C)c1 (racemic)",
    "UNIT_OF_MEASURE": "%",
    "MEASURED_VALUE": 84
  },
  {
    "COMPOUND": "CCCCCCOc1ccccc1C(OC)C1CC1c1cc(C)c(OC(C)(C)C(=O)O)c(C)c1 (racemic)",
    "UNIT_OF_MEASURE": "%",
    "MEASURED_VALUE": 78
  },
  {
    "COMPOUND": "COC(c1ccc(SC)cc1)C1CC1c1cc(C)c(OC(C)(C)C(=O)O)c(C)c1 (single isomer, unassigned)",
    "UNIT_OF_MEASURE": "%",
    "MEASURED_VALUE": 77
  },
  {
    "COMPOUND": "COC(c1ccccc1OC(F)(F)F)C1CC1c1cc(C)c(OC(C)(C)C(=O)O)c(C)c1 (single isomer, unassigned)",
    "UNIT_OF_MEASURE": "%",
    "MEASURED_VALUE": 59
  },
  {
    "COMPOUND": "COC(c1ccc(C(F)(F)F)cc1F)C1CC1c1cc(C)c(OC(C)(C)C(=O)O)c(C)c1 (single isomer, unassigned)",
    "UNIT_OF_MEASURE": "%",
    "MEASURED_VALUE": 89
  }
]
